Please provide measured IC50 for the entries that follow.
Target: Cholinesterase (Equus caballus)
Sequence (P81908 whole entry): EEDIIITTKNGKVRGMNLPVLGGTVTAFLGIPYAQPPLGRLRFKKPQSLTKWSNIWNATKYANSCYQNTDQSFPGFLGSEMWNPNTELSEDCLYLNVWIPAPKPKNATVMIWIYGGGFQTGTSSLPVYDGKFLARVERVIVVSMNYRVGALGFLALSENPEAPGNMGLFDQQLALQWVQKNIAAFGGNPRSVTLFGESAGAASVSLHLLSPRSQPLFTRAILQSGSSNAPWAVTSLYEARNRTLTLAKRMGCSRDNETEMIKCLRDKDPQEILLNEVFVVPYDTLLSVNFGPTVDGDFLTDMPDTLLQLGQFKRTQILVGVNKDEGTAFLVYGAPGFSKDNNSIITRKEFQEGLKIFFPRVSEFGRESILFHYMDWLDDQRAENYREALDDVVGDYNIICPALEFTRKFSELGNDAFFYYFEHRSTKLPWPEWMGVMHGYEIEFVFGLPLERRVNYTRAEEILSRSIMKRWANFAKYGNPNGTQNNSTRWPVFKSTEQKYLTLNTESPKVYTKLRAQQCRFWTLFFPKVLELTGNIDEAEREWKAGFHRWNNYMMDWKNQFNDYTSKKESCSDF

| compound | IC50 |
| --- | --- |
| COc1ccc2c(=O)oc3c(OC)cc(CCN(C)C)c4c(=O)oc1c2c34 | > 100 µM |

Could you now consider this next compound?
Tell us which IC50 value is on record for COc1c(O)cc2c3c1-c1ccccc1C[C@H]3NCC2 [(-)-ASIMILOBINE] > 100 µM

* * *

Molecular target: Acetylcholinesterase (Homo sapiens)
Sequence (P22303 whole entry): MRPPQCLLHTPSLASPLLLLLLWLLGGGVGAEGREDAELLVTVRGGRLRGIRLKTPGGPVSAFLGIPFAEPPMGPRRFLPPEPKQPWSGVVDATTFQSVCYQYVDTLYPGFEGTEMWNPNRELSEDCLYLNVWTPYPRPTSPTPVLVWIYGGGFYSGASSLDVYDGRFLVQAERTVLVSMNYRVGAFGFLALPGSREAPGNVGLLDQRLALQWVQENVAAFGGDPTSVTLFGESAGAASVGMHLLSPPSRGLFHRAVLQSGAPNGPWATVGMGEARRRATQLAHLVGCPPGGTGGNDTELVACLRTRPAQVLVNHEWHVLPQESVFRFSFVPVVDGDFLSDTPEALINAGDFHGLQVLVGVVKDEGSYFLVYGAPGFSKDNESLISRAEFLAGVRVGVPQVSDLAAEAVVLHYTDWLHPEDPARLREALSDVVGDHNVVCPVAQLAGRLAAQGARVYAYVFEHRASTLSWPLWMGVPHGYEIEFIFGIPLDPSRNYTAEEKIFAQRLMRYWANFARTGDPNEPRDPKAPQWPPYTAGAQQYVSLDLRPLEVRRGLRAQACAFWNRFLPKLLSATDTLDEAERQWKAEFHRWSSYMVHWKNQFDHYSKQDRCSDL
quantity kind: pIC50
Give bare numbers, as −log10 of the molar value.

Specify the recorded pIC50 for COc1ccc2c(=O)oc3c(OC)cc(CCN(C)C)c4c(=O)oc1c2c34 , system: Acetylcholinesterase (Homo sapiens). 6.27

* * *

Target: Acetylcholinesterase (Electrophorus electricus, UniProt O42275)
Sequence (O42275 whole entry): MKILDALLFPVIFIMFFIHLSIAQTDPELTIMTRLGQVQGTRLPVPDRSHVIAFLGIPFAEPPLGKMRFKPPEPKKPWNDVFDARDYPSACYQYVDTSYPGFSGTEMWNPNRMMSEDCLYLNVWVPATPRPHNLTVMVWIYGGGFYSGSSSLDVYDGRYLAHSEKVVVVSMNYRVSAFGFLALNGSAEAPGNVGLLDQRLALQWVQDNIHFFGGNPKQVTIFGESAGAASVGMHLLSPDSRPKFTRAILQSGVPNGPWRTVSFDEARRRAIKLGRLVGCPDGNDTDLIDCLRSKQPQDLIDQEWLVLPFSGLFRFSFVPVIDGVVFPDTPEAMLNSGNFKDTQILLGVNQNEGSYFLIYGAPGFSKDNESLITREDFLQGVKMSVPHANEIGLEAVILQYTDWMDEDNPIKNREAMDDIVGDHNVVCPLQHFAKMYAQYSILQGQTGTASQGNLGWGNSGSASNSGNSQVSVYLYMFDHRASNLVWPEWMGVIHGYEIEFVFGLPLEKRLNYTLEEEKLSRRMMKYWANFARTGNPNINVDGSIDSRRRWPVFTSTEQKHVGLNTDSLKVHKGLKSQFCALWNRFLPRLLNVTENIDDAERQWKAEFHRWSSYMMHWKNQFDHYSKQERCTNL
quantity kind: IC50 (nM)
Answers are plain numbers, in nM.

Read off the recorded IC50 for COc1ccc2c(=O)oc3c(OC)cc(CCN(C)C)c4c(=O)oc1c2c34 [TASPINE] 330
